Test system: Mus musculus
PROTOCOL NOTES: Anticonvulsant activity in ip dosed albino mouse assessed as protection against 6 Hz electric shock-induced seizures
Type: functional
Provide the recorded ED50 for the entries that follow.
Answers are plain numbers, in mg/kg.

Solved entries (count: 3):
COC[C@@H](NC(C)=O)C(=O)NCc1ccccc1 [LACOSAMIDE]    10
CC(=O)N[C@H](COCCN=[N+]=[N-])C(=O)NCc1ccccc1    44
C#CCOC[C@@H](NC(C)=O)C(=O)NCc1ccc(N=C=S)cc1    53

Would you kindly look at the next entry?
Query :: API: value(readout= ED50, system= Mus musculus, query= "C#CCOC[C@@H](NC(C)=O)C(=O)NCc1ccccc1" )
Result :: 29
